The values you see were collected from the NIST ThermoML archive (doi:10.1021/je900437b).

conditionDescription: 313.15 K; 101 kPa; Liquid; Sing-around technique in a fixed-path interferometer
recordedEndpoint: speed of sound (m/s)
The answer is to be given in m/s; state only the numeric part.

CN(CCO)CCO [N-methyldiethanolamine]; 1524.2
NCCO [2-aminoethan-1-ol]; 1670.5
OCCN(CCO)CCO [triethanolamine]; 1587

# input Which speed of sound value is on record for CC(C)(N)CO [2-amino-2-methylpropan-1-ol] ?
# output 1423.8

====

conditionDescription: 313.15 K; 101 kPa; Liquid; Vibrating tube method
recordedEndpoint: mass density (kg/m3)
The answer is to be given in kg/m3; state only the numeric part.

OCCN(CCO)CCO; 1112.4
NCCO; 1000.04
CC(C)(N)CO; 919.945

# input Which mass density value is on record for CN(CCO)CCO ?
# output 1026.48
